Structures can show the parent of a compound that is named as a salt.
Below are compounds with their IC50 cell viability as measured on PCB-490-4 (human epithelioid sarcoma primary culture).

Example compounds with recorded IC50 cell viability:
• Cc1cc(Nc2cc(N3CCN(C)CC3)nc(Sc3ccc(NC(=O)C4CC4)cc3)n2)n[nH]1 [Tozasertib] = 3.33 µM
• Cn1cc(NC(=O)c2cc(NC(=O)CNC(=N)N)cn2C)cc1C(=O)NCCC(=N)N [Netropsin Dihydrochloride] = > 10 µM
• CC(C)n1nc(-c2ccc3oc(N)nc3c2)c2c(N)ncnc21 [INK 128] = 0.06 µM
• COCC[n+]1c2c(n(Cc3cnccn3)c1C)C(=O)c1ccccc1C2=O [YM155] = 0.27 µM

Find the measured IC50 cell viability: item COCC1(CO)C(=O)C2CCN1CC2 (centres undefined) [APR-246] , target or system PCB-490-4. 0.12 µM

###

Test system PCB-490-5 (human epithelioid sarcoma primary culture), IC50 cell viability listed for each of the compounds.

• Cc1ccc(S(=O)(=O)/C=C/C#N)cc1 = 0.77 µM
• N#CC[C@H](C1CCCC1)n1cc(-c2ncnc3[nH]ccc23)cn1 = > 10 µM

Find IC50 cell viability (PCB-490-5) for the entry Cc1cc(Nc2cc(N3CCN(C)CC3)nc(Sc3ccc(NC(=O)C4CC4)cc3)n2)n[nH]1 > 10 µM

Hello, I am looking for reported IC50 cell viability with PCB-490-5 for Nc1ccccc1NC(=O)c1ccc(CNC(=O)OCc2cccnc2)cc1 . Could you help? > 10 µM

PCB-490-5 / IC50 cell viability / Nc1nc(Nc2ccc(S(N)(=O)=O)cc2)nn1C(=S)Nc1c(F)cccc1F : value? 1.1 µM

Could you share what IC50 cell viability was measured for CC(C)N(CCCNC(=O)Nc1ccc(C(C)(C)C)cc1)C[C@H]1O[C@@H](n2cc(Br)c3c(N)ncnc32)[C@H](O)[C@@H]1O , tested on PCB-490-5? > 10 µM

Form field: IC50 cell viability recorded for C[C@@H](Oc1ccc2[nH]nc(/C=C/c3cnn(CCO)c3)c2c1)c1c(Cl)cncc1Cl with PCB-490-5 (enter value) 0.46 µM

###

The reader will find IC50 cell viability measurements below, all made with FU-EPS-1.

// worked examples, IC50 cell viability included
* CC(C)n1nc(-c2ccc3oc(N)nc3c2)c2c(N)ncnc21 | > 10 µM
* CC(C)N(CCCNC(=O)Nc1ccc(C(C)(C)C)cc1)C[C@H]1O[C@@H](n2cc(Br)c3c(N)ncnc32)[C@H](O)[C@@H]1O | 1.48 µM
* Cn1c(=O)n(-c2ccc(C(C)(C)C#N)cc2)c2c3cc(-c4cnc5ccccc5c4)ccc3ncc21 | 0.14 µM

What reported IC50 cell viability corresponds to Cc1cc(Nc2cc(N3CCN(C)CC3)nc(Sc3ccc(NC(=O)C4CC4)cc3)n2)n[nH]1 on FU-EPS-1? > 10 µM

For the record CO[C@@H]1[C@H](N(C)C(=O)c2ccccc2)C[C@H]2O[C@]1(C)n1c3ccccc3c3c4c(c5c6ccccc6n2c5c31)C(=O)NC4 , what value of IC50 cell viability is listed for FU-EPS-1? > 10 µM

Report IC50 cell viability for CNC(=O)CN1CCC(Oc2cc3c(Nc4cccc(Cl)c4F)ncnc3cc2OC)CC1 tested on FU-EPS-1. > 10 µM

API: value(readout= IC50 cell viability, system= FU-EPS-1, query= CC(C)n1c(/C=C/C(O)CC(O)CC(=O)O)c(-c2ccc(F)cc2)c2ccccc21 (stereo not given) ) 1.48 µM

Param readout= IC50 cell viability; system= FU-EPS-1; entry= Nc1nc(Nc2ccc(S(N)(=O)=O)cc2)nn1C(=S)Nc1c(F)cccc1F ; returns value. > 10 µM

State its IC50 cell viability on FU-EPS-1: CC[C@H](C)n1cc(C)c2c(C(=O)NCc3c(C)cc(C)[nH]c3=O)cc(-c3ccc(N4CCNCC4)nc3)cc21 > 10 µM

Please provide the recorded IC50 cell viability for CN[C@@H](C)C(=O)N[C@H](C(=O)N1CCC[C@H]1c1nc(C(=O)c2ccc(F)cc2)cs1)C1CCCCC1 , tested on FU-EPS-1. > 10 µM

Request body: readout IC50 cell viability, system FU-EPS-1, query COc1cc2nc(N3CCCN(C)CC3)nc(NC3CCN(Cc4ccccc4)CC3)c2cc1OC . Return the value. 1.01 µM

Enter reported IC50 cell viability observed with FU-EPS-1 for C=C[C@@]1(C)CC(=O)[C@]2(O)[C@@]3(C)[C@@H](O)CCC(C)(C)[C@@H]3[C@H](O)[C@H](OC(C)=O)[C@@]2(C)O1 > 10 µM
